Biological target: human A3AR (Homo sapiens, UniProt P0DMS8)
Sequence (P0DMS8 1-318): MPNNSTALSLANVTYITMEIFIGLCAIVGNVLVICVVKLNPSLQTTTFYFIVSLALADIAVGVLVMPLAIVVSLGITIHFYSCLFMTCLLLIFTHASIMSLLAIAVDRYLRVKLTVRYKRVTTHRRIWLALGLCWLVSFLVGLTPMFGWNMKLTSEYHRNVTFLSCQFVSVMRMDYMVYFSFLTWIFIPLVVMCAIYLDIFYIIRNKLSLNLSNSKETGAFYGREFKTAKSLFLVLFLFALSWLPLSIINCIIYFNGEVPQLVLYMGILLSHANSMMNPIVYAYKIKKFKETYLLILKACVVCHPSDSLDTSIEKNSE
MEASUREMENT KIND: pKi
Entry type: numeric. Quantity: pKi, the -log10 of concentration in molar units.

Examples with answers:
> print(dat)
                                   compound  observed.measurement
1  Nc1nc(SCc2ccccc2)nc2c1ncn2[C@H]1[C@H](O)[C@H](O)[C@]2(CO)C[C@H]12 [Compound 8e]                  7.30
2  Nc1nc(SC2CCCCC2)nc2c1ncn2[C@H]1[C@H](O)[C@H](O)[C@]2(CO)C[C@H]12 [Compound 8d]                  5.97
3  COc1nc(N)c2ncn([C@H]3[C@H](O)[C@H](O)[C@]4(CO)C[C@H]34)c2n1 [Compound 8g]                  5.94
4  CCSc1nc(N)c2ncn([C@H]3[C@H](O)[C@H](O)[C@]4(CO)C[C@H]34)c2n1 [Compound 8b]                  6.01
5  Nc1nc(SCCc2ccccc2)nc2c1ncn2[C@H]1[C@H](O)[C@H](O)[C@]2(CO)C[C@H]12 [Compound 8f]                  6.54

Now take the following compound into account.
Asked: Consider the compound shown here: CCCCCCSc1nc(N)c2ncn([C@H]3[C@H](O)[C@H](O)[C@]4(CO)C[C@H]34)c2n1 [Compound 8c] What is its recorded pKi?
Given back: 6.26
